Tested on: SK-MEL-28 melanoma
Test: NCI-60 one-dose screen, 48 h
Conditions: 10 µM unless noted
Description: Growth inhibition of the SK-MEL-28 human tumor cell line is measured as a screen for anti-cancer activity. Cells are grown in 96 well plates and exposed to the test compound for 48 hours. Compounds are tested at a single concentration, which is 10^-5 M for most compounds. The reported endpoint is percent growth (GI% or GIPRCNT), where numbers from 0 - 100% represent growth inhibition, and numbers from -100% - 0 represent cell death. For example, a value of 40 represents 60% growth inhibition. […]
The panel holds about 83,000 compounds, 20% with a hit somewhere; the sample as a whole holds those more often. Active and inactive are the calls of the source. The calls were made as follows: active = growth percent below 10; inactive = the rest.
Please reply with one of these outcomes: TRUE = active, FALSE = inactive

Query: What was the test verdict on `COC(=O)c1cccc(NC2=C(Cl)C(=O)C(C)=C(C)C2=O)c1` ?
Reply: FALSE

Query: Which outcome did this test record for the compound C/C(CC1(O)C(=O)Nc2ccccc21)=N\O (stereo not drawn) ?
Reply: FALSE

Query: // param item: `CCN(CC)CCOc1ccc(C(=C(C)Cc2ccc(OC)cc2)c2ccc(OCCN(CC)CC)cc2)cc1` ; yields the recorded call
Reply: TRUE

Query: Would you mind telling me which call this test gave `COc1ccc(-c2c(C(N)=O)c(N)n(Cc3nc4ccccc4[nH]3)c(=O)c2C#N)c(OC)c1` ?
Reply: FALSE

Query: Please state the recorded outcome for this compound: COc1ccc(C2CC(c3cccc(OCCCCOc4cccc(C5=NN(C(C)=O)C(c6ccc(OC)cc6)C5)c4)c3)=NN2C(C)=O)cc1 (stereo not drawn)
Reply: FALSE

Query: Test call for this compound, please: `COCCOc1ccc2ncc(C#Cc3cncc(C(=O)Nc4ccc(CN5CCN(C)CC5)c(C(F)(F)F)c4)c3)n2n1`
Reply: TRUE

Query: Lab log entry: CC(=O)N1N=C(c2cc3ccccc3oc2=O)CC1c1cn(-c2ccccc2)nc1-c1ccc(C)cc1 (stereo not drawn) — outcome as called in the assay?
Reply: FALSE

Query: Status in this test for COc1ccc(/C=N\NC(=O)c2cnn(CC(O)c3ccccc3)c2N)cc1OCc1ccc(Cl)cc1 (stereo not drawn) ?
Reply: FALSE

Query: Hello, I am checking results. What call was entered for `Brc1ccc2[nH]cc(-c3nn4cc(-c5nccs5)nc4s3)c2c1` ?
Reply: FALSE

Query: Test call, this compound: `COc1cc(OC)cc(-c2cc(-c3c[nH]c4ccccc34)nc(-c3c[nH]c4ccccc34)c2C#N)c1`
Reply: FALSE

Query: For `Cc1csc(/N=C(N)/N=C(\N)c2cccc(C#N)c2)n1` , which call appears in the assay record?
Reply: FALSE

Query: # lookup: test call for `C#C[C@]1(O)CC[C@H]2[C@@H]3CC=C4c5sc(Nc6ncccc6C)nc5CC[C@]4(C)[C@H]3CC[C@@]21C`
Reply: TRUE

Query: Which outcome was assigned to NC1[C@H]2CN(c3cnc(C(=O)Nc4cc(F)cc5cccnc45)cn3)C[C@@H]12 (stereo partly drawn) in this test?
Reply: FALSE

Query: Test call, this compound: `O=C(/C=C/c1cc(Cl)ccc1Cl)Nc1ncc(Cc2ccc(Cl)cc2)s1`
Reply: FALSE

Query: Just curious, what result did CC(Nc1c(C#N)cnc2ccc(-c3cncc(-c4n[nH]c(=O)o4)c3)cc12)c1ccccc1 (stereo not drawn) get here?
Reply: FALSE

Query: In this assay, the call recorded for `COc1cc2c3c(cc4c5c(ccc4c3c1OC)OCO5)N(CCN(C)C)C2=O` was what?
Reply: TRUE

Query: Each compound tested received a call. Report the one for `Cc1ccc(NC(=O)/C=C/c2ccc(OCCCOc3ccc4c(C)cc(=O)oc4c3)cc2)cc1` .
Reply: FALSE

Query: What outcome does the record of this test show for `O=C(/C=C/c1ccc(F)cc1)Nc1cccc2cccnc12` ?
Reply: FALSE

Query: Record request — test call for `CS(=O)(=O)c1ccc(/C(=N/N=C(N)N)c2ccc(F)cc2)cc1`
Reply: FALSE

Query: How was `C/C(=C(\c1ccc(O)cc1)c1ccc(OCCN2CCCCCC2)cc1)c1ccc(Cl)cc1` classified in this test?
Reply: TRUE

Query: For this compound, state the assay outcome: `CSc1ccc(/C(=N/N=C(N)N)c2ccc(F)cc2)cc1`
Reply: FALSE

Query: Which outcome did this test record for the compound `Cc1cccc(N2CCN(C3=C(Cl)C(=O)c4ncccc4C3=O)CC2)c1` ?
Reply: FALSE

Query: Hi team, can someone confirm the assay call for `CCc1cc2c(cc1Cl)nc1c(=O)[nH]c(=O)nc-1n2CCOCC(C)(C)C` ?
Reply: FALSE

Query: Assay outcome for `Cc1cc(=O)[nH]c(O)c1C#N` : what was it?
Reply: FALSE

Query: Name the outcome recorded for `COc1ccc2c(c1)c(-c1nc(N)nnc1-c1c[nH]c3ccccc13)cn2C` in the assay.
Reply: FALSE

Query: # fetch the recorded call for `CC(C)(C)OC(=O)NCc1ccc(CNc2c([N+](=O)[O-])cnc3ccccc23)cc1` here
Reply: FALSE

Query: Record lookup: outcome of this test for Nc1cc(C(=O)N/N=C\c2ccc(OC(F)F)c(OC3CCCC3)c2)nn1CC(O)c1ccccc1 (stereo not drawn) ?
Reply: FALSE

Query: Please let me know the test result on file for `CC1=C(C)C(=O)C(Nc2ccc(C)cc2)=C(Br)C1=O` .
Reply: FALSE

###

Test system: RXF 393 renal
Assay: NCI-60 one-dose screen, 48 h (100 = growth as untreated, 0 = no growth, -100 = all killed)
Conditions: 10 µM unless noted
Compounds without any hit were thinned out: in the full panel of roughly 83,000, 20% have a hit.
Attribute Measured: growth (%)
Give the value in % but do not write % after it.

Summary for this molecule, `O=C(Nc1ccccc1)Nc1nc2ccc([N+](=O)[O-])cc2[nH]1` : growth is 60

// field: growth; key: `O=C(Nc1ccc(Cl)c(C(F)(F)F)c1)Nc1ccc2c(ccn2C(=O)c2cccc(F)c2)c1` ; value = 28.7

For this molecule ( `COc1ccc2[nH]cc(/C=N/Nc3ccnc4cc(Cl)ccc34)c2c1` ), measured growth is -100

Field growth (entry `COc1cc(OC)cc(-c2cc(-c3c[nH]c4ccccc34)nc(-c3c[nH]c4ccccc34)c2C#N)c1` ) reads 108

So, `COC(=O)CNC(=O)c1cccc(-c2cc(=O)c3c(OC)c(OC)c(OC)cc3o2)c1` ? Its growth was 99.4

###

Tested on: IGROV1 ovarian
Assay: NCI-60 one-dose screen, 48 h (100 = growth as untreated, 0 = no growth, -100 = all killed)
Details: 10 µM unless noted
This is part of a sample that, as a whole, favours compounds with a hit. Of some 83,000 tested, about 20% had one in any assay.
Classes by growth: lower segment (below 30%), middle segment (30% to below 80%), upper segment (80% or more)

Query: Into which category would you place `O=C1[C@@H]2Cc3c([nH]c4ccccc34)[C@@H](c3ccc(Cl)cc3)N2C(=O)CN1C1CCN(Cc2ccccc2)CC1` ?
Reply: lower segment

Query: Tag the class for `Cc1cc(=O)oc2cc(OCCCOc3ccc(/C=C/C(=O)Nc4ccc(Br)cc4)cc3)ccc12`
Reply: middle segment

Query: Category of `CN1CCN(Cc2ccc(NC(=O)c3cncc(C#Cc4cnc(N)nc4)c3)cc2C(F)(F)F)CC1` :
Reply: lower segment

Query: Category of `O=C1[C@H]2Cc3c([nH]c4ccccc34)[C@H](c3ccc(Cl)cc3)N2C(=O)CN1C1CCN(CC2CCCCC2)CC1` , please.
Reply: middle segment

Query: # classify by growth band: `COc1cc2cc(Oc3ccc(NC(=O)Nc4ccc(F)c(C(F)(F)F)c4)cc3)c(C)nc2cc1OCCN(C)C`
Reply: upper segment

Query: Could you tell me which band `NS(=O)(=O)c1cccc(Nc2nc(SCC(=O)c3ccc(Cl)cc3)nc3c2CCC3)c1` belongs to?
Reply: upper segment

Query: Which growth category applies to `O=C(CCCCCCN1CC(=O)N2[C@@H](c3ccc(Cl)s3)c3[nH]c4ccccc4c3C[C@H]2C1=O)NO` here?
Reply: lower segment

Query: Hey, which category is `CCOc1cccc(/C(N)=N/C(N)=N/c2nc3ccccc3s2)c1` in, do you know?
Reply: middle segment

Query: GET /class?item= `Cc1csc(/N=C(N)/N=C(\N)c2cccs2)n1`
Reply: upper segment

Query: Please let me know in which category the item `N#Cc1nc(-c2ccccc2)oc1N1CCC(C2(C(F)(F)F)N=N2)CC1` belongs.
Reply: upper segment

Query: For `O=C(COc1ccc(/C=C2\C(=O)Nc3ccc(Cl)cc32)cc1)Nc1ccc(Cl)cc1` , which growth bin applies?
Reply: middle segment

Query: Which class holds `CC1CCN(CC(=O)Nn2c(COc3ccccc3)nc3ccccc3c2=O)CC1` ?
Reply: middle segment

Query: Returns: class label. Input: `CCc1cc(O)ccc1Nc1cc(-c2ccc(-n3cccn3)cc2)[nH]n1`
Reply: upper segment

Query: Exercise: read the entry CCCCN1C(=O)/C(=c2\sc3n(c2=O)C2C(NN=3)N(CC)C(=O)N2CC)c2cccc(C)c21 (centres undefined) and state which class it falls under.
Reply: middle segment

Query: Hey, which category is `CC1=C(C)C(=O)C(Nc2ccc3c(c2)OCCO3)=C(Br)C1=O` in, do you know?
Reply: upper segment

Query: Class (by measured growth) for `Cc1ccc2c(n1)C(=O)C(Cl)=C(Nc1ccc(C)c(C)c1)C2=O`
Reply: lower segment

Query: Please let me know in which category the item `NS(=O)(=O)c1ccc(Nc2nc(N/N=C/c3ccc4c(c3)OCO4)nc(Nc3ccccc3)n2)cc1` belongs.
Reply: middle segment

Query: Class? Entry: `COc1ccc([C@H]2C(=O)N(c3cc(OC)c(OC)c(OC)c3)[C@@H]2c2ccc(OC)c(O)c2)cc1`
Reply: lower segment

Query: Category of `O=C(CCCCCCNC(=O)C(O)(O)C(F)(F)F)Nc1nc2ccccc2s1` :
Reply: lower segment

Query: Band of `CN(C)c1cccc2c(S(=O)(=O)Nc3cccc(-c4csc(NC(=O)CCCCCN5CCN(CCO)CC5)n4)c3)cccc12` ?
Reply: upper segment

Query: Place this compound in its band: `C#Cc1cc(C(=O)Nc2ccc(CNCCN3CCOCC3)c(C(F)(F)F)c2)ccc1C`
Reply: upper segment

Query: // return the class label for `O=C(CSc1nc2ccccc2c(=O)n1-c1ccc(Cl)cc1)N/N=C/c1ccc(Oc2ccc(Cl)cc2)cc1`
Reply: lower segment

Query: Band of NC1C2CCC1CN(c1cnc(C(=O)Nc3cc(F)cc4cccnc34)cn1)C2 (centres undefined) ?
Reply: lower segment

Query: Tag the class for `CCOC(=O)c1c(NC(=O)c2ccc(C(F)(F)F)cc2)sc2c(CN3CCN(C)CC3)c(O)ccc12`
Reply: lower segment

Query: // bin(item) where item = CC[C@]12CC(C(=O)OC)=C3Nc4ccccc4[C@@]34CCN(C14)[C@@H]1c3cc4c(cc3O[C@@H]1[C@H]2O)NC1=C(C(=O)OC)C[C@@]2(CC)C3N(CC[C@@]143)C[C@H]1O[C@H]12 (some centres undefined)
Reply: lower segment

Query: Bin? `COc1ccc(C(=O)c2c(N)c(C#N)cn2-c2ccc(Cl)cc2Cl)cc1`
Reply: upper segment

Query: Consider `Nc1ncc(-c2ccc3ncnc(NCc4ccccc4)c3c2)cn1` . To which growth class does it belong?
Reply: lower segment

All values here come from PubChem BioAssay (NCI).
